# Assay name: chemical genetic growth profiling, strain panel (AID 1159580);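 further: tested at 20 µM; growth read once vehicle control cultures reached saturation at 30 °C; lower values mean less growth of the strain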
# Measurement parameters: S. cerevisiae deletion strains, growth OD, locus YJL095W, strain BCK1
In all, about 5,500 compounds went through this assay and about 2,000 (36%) were called active. Roughly 18% stayed inconclusive and do not appear here. No stated cut-off is given here; in the data, active means normalized growth mostly below about 0.91 (no sharp cut-off); inconclusive means no clear call, values can overlap the other calls; inactive means mostly above about 0.92. Some of the results follow.
Write down one outcome, taken from Y (active), N (inactive)

Per the assay record, what outcome was assigned to O=C(N/C=C/c1ccsc1)Nc1cc(C(F)(F)F)cc(C(F)(F)F)c1 ?
Y

Per the assay record, what outcome was assigned to O=C1C(=O)N(CN2CCc3c([nH]c4ccccc34)C2C(F)(F)F)c2ccc(F)cc21 (centres undefined) ?
N

Per the assay record, what outcome was assigned to CC1=C(/C=C/C(C)=C/C=C/C(C)=C/C=C/C=C(C)/C=C/C=C(C)/C=C/C(=O)[C@]2(C)C[C@@H](O)CC2(C)C)C(C)(C)C[C@H](O)C1 ?
N

Per the assay record, what outcome was assigned to CC1=C(/C=C/C(C)=C/C=C/C(C)=C/C=C/C=C(C)/C=C/C=C(C)/C=C/C23OC2(C)CC(O)CC3(C)C)C(C)(C)CC(O)C1 (centres undefined) ?
N

###

# Assay name: chemical genetic growth profiling, strain panel (AID 1159580);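 further: tested at 20 µM; growth read once vehicle control cultures reached saturation at 30 °C; lower values mean less growth of the strain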
# Measurement parameters: S. cerevisiae deletion strains, growth OD, locus YKL193C, strain SDS22
Out of some 5,500 compounds screened, about 2,000 (36%) were called active. Roughly 18% stayed inconclusive and do not appear here. Rule as the data show it: active = normalized growth mostly below about 0.91 (no sharp cut-off); inconclusive = no clear call, values can overlap the other calls; inactive = mostly above about 0.92. This is one part of the list.
Write down one outcome, taken from active, inactive

Per the assay record, what outcome was assigned to Cc1cc(C(=O)NNc2ccc(F)cc2F)no1 ?
inactive

Per the assay record, what outcome was assigned to COc1ccc(/C=C2\CSc3ccc(F)cc3C2=O)cc1 ?
inactive

Per the assay record, what outcome was assigned to COc1cc(NC(=S)NC(=O)c2ccccc2)c(OC)cc1Cl ?
inactive

Per the assay record, what outcome was assigned to S=C(Nc1ccc(Cl)cc1Cl)N(c1cccc(Cl)c1)c1nc2ccccc2s1 ?
inactive

Per the assay record, what outcome was assigned to Cc1nnsc1C(=O)NNc1c(Cl)cccc1Cl ?
inactive

Per the assay record, what outcome was assigned to Cc1cc(Cl)ccc1NNC(=O)c1ccno1 ?
inactive

Per the assay record, what outcome was assigned to Cc1nnsc1C(=O)Nc1cc(C(F)(F)F)cc(C(F)(F)F)c1 ?
inactive

Per the assay record, what outcome was assigned to OC1(C(F)(F)F)CC(C23CC4CC(CC(C4)C2)C3)=NN1 (stereo not given) ?
active

Per the assay record, what outcome was assigned to O=C(NNc1ccccc1F)c1ccno1 ?
inactive

Per the assay record, what outcome was assigned to O=C(CSc1nnnn1-c1ccccc1)c1ccccc1 ?
inactive

Per the assay record, what outcome was assigned to COc1ccc(CN2CSC(=S)N(Cc3ccc(OC)cc3)C2)cc1 ?
inactive

Per the assay record, what outcome was assigned to Cc1ccccc1C(=O)Oc1ccc(C(F)(F)F)cc1[N+](=O)[O-] ?
inactive

Per the assay record, what outcome was assigned to COc1cc(NC(=S)N(C)C)c(OC)cc1Cl ?
inactive

Per the assay record, what outcome was assigned to O=S(=O)(Nc1cccc2nsnc12)c1cc(Cl)sc1Cl ?
inactive

Per the assay record, what outcome was assigned to Cc1cc(C(=O)Nc2ccc(Cl)cc2)nn1C(C)(C)C ?
inactive

Per the assay record, what outcome was assigned to N#Cc1ccc(S(=O)(=O)Nc2ccccc2Oc2ccc(Cl)cc2Cl)cc1 ?
inactive

Per the assay record, what outcome was assigned to N#CC(C#N)=C(SCc1c(Cl)cccc1Cl)SCc1c(Cl)cccc1Cl ?
inactive

Per the assay record, what outcome was assigned to Cc1ccc(OCC2SCCN2C(=O)c2ccc(C(F)(F)F)cc2)c([N+](=O)[O-])c1 (stereo not given) ?
inactive

Per the assay record, what outcome was assigned to Cc1ccc(/C=C2\CSc3ccc(F)cc3C2=O)cc1 ?
inactive

Per the assay record, what outcome was assigned to CCOC(=O)CSC(=S)NCc1ccc(C)cc1 ?
inactive

Per the assay record, what outcome was assigned to Cc1ccc(Sc2c(Sc3ccc(C)cc3)c(=O)c2=O)cc1 ?
inactive

Per the assay record, what outcome was assigned to O=C(N/C=C/c1ccsc1)Nc1cc(C(F)(F)F)cc(C(F)(F)F)c1 ?
inactive

Per the assay record, what outcome was assigned to CSC1=NNC(c2nn(C)cc2Cl)S1 (stereo not given) ?
active

Per the assay record, what outcome was assigned to Cc1cc(Cl)ccc1NNC(=O)c1snnc1C ?
inactive

Per the assay record, what outcome was assigned to Cc1nn(Cc2cccc(C(=O)Nc3ccc(Cl)cc3)c2)c(C)c1Br ?
inactive
